Cited source: patent US20210371529A1

- Target: T1, human LAG-3-His (human, UniProt P18627 23-450)
- T1 construct: Bought antigen (ArcoBiosystems), 100 nM in solution in the ForteBio assay; also called human LAG-3 antigen (ArcoBiosystems); hLAG-3; not shown: His tag
- T1 sequence (looked up): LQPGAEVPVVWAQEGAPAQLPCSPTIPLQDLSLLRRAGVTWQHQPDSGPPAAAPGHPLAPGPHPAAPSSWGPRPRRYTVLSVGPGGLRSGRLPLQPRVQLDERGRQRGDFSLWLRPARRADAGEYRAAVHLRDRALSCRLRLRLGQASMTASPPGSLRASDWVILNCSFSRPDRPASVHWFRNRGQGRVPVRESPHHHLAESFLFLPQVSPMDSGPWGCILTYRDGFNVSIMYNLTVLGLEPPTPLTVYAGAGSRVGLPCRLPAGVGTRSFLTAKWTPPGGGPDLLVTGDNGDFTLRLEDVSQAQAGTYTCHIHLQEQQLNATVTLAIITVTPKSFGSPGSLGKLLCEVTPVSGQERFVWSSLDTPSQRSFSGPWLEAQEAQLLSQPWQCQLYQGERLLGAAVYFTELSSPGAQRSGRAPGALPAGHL
- Experimental details: BLI (ForteBio), antibody on AHQ tip, human LAG-3-His 100 nM in solution
Assay endpoint: kon (M⁻¹ s⁻¹)
# unit: M⁻¹ s⁻¹ | format: bare number

**Query** // lookup kon for BAP050 (antibody, V domains shown) VH: QIQLVQSGPELKKPGETVKISCKASGFTLTNYGMNWVRQTPGKGLKWMGWINTDTGEPTYADDFKGRFAFSLETSASTASLQINNLKNADTATYFCARNPPYYYGTNNAEAMDYWGQGTAVTVSS VL: DIQMTQTTSSLSASLGDRVTISCSSSQDISNYLNWYQQKPDGTVKVLIYYTSTLHLGVPSRFSGSGSGTDYSLTISNLELEDIATYYCQQYYNLPWTFGGGTKLEIK
**Result** 237000

**Query** // lookup kon for ADI-31853 (antibody, human IgG4 S228P, kappa, F234A L235A, V domains shown, IgG4 heavy chain constant region with kappa light chain; expressed in HEK293 cells) VH: QLQLQESGPGLVKPSETLSLTCTVSGGSIYSESYYWGWIRQPPGKGLEWIGSIVYSGYTYYNPSLKSRVTISVDTSKNQFSLKLSSVTAADTAVYYCARVRTWDAAFDIWGQGTMVTVSS VL: DIQMTQSPSSLSASVGDRVTITCQASQDISNYLNWYQQKPGKAPKLLIYDASNLETGVPSRFSGSGSGTDFTFTISSLQPEDIATYYCQQVLELPPWTFGGGTKVEIKR
**Result** 322000

**Query** // lookup kon for ADI-31851 (antibody, human IgG4 S228P, kappa, F234A L235A, V domains shown, IgG4 heavy chain constant region with kappa light chain; expressed in HEK293 cells) VH: QLQLQESGPGLVKPSETLSLTCTVSGGSISSPDYYWGWIRQPPGKGLEWIGSIVYSGYTYYNPSLKSRVTISVDTSKNQFSLKLSSVTAADTAVYYCARVRTWDQSFDIWGQGTMVTVSS VL: DIQMTQSPSSLSASVGDRVTITCQAGQDISNYLNWYQQKPGKAPKLLIYDASNLETGVPSRFSGSGSGTDFTFTISSLQPEDIATYYCQQVLELPPWTFGGGTKVEIKR
**Result** 330000

**Query** // lookup kon for ADI-26869 (antibody, human IgG4 S228P, kappa, F234A L235A, V domains shown, Fully human antibody from yeast display; IgG4 heavy chain constant region with kappa light chain; expressed in HEK293 cells; also called anti-human LAG-3 antibody ADI-26869; parent antibody) VH: QLQLQESGPGLVKPSETLSLTCTVSGGSISSSDYYWGWIRQPPGKGLEWIGSIYYSGSTYYNPSLKSRVTISVDTSKNQFSLKLSSVTAADTAVYYCARVRTWDAAFDIWGQGTMVTVSS VL: DIQMTQSPSSLSASVGDRVTITCQASQDISNYLNWYQQKPGKAPKLLIYDASNLETGVPSRFSGSGSGTDFTFTISSLQPEDIATYYCQQVHALPPWTFGGGTKVEIKR
**Result** 488000
